assay: Quantitative High-Throughput drug screen in 47 multiple myeloma cell lines against the NCATS MIPE library collection: KMM1_JCRB cell viability assay (AID 1918960); note: nearly all actives have a fitted effect of over 30% in size
setup conditions: KMM1 myeloma viability, CellTiter-Glo ATP luminescence, 48 h; series mostly up to 45.8 µM
Inconclusive results are not listed. Calls of active or inactive are those of the source. Calls come from the whole dose curve; as a rule, active = well fitted cell-killing curve with a large enough effect; inconclusive = small, poorly fitted or top-dose-only effect, or effect the other way; inactive = no such curve, though single readings can be large or run the other way.
Classes used: true = active, false = inactive

| compound | group |
| --- | --- |
| CCn1cc(-c2ccnc3[nH]c(-c4cccc(CN(C)C)c4)cc23)c(-c2ccc(NC(=O)N(C)C)cc2)n1 | true |
| CC(C)[C@H](C(=O)Nc1ccc(C(=O)NO)cc1)c1ccccc1 | true |
| COc1cc(-c2nn(C3CCC(N4CCN(C(C)=O)CC4)CC3)c3ncnc(N)c23)ccc1NC(=O)c1cc2ccccc2n1C (centres undefined) | true |
| CC=CC1=C(C(=O)O)N2C(=O)[C@H](NC(=O)[C@H](N)c3ccc(O)cc3)[C@@H]2SC1 | false |

---

System: Tov-21-G
assay: Primary qHTS to identify gynecologic anti-cancer compounds using libraries of approved drugs and bioactive compounds (AID 1345084); note: nearly all actives have a fitted effect of over 55% in size
setup conditions: Gynecologic cancer cell panel viability, ATPlite luminescence, 48 h; series mostly up to 57.5 µM
Inconclusive results are not listed. Calls of active or inactive are those of the source. The call rests on the fitted dose curve; in most records, active means well fitted cell-killing curve with a large enough effect; inconclusive means small, poorly fitted or top-dose-only effect, or effect the other way; inactive means flat fitted curve, though single readings scatter.
Classes used: yes (1) = active, no (0) = inactive

| compound | group |
| --- | --- |
| CC(C)c1cc(-c2n[nH]c(=O)n2-c2ccc3c(ccn3C)c2)c(O)cc1O | yes (1) |
| c1ccc2c(CCNc3ccc(Nc4ccncc4)cc3)c[nH]c2c1 | no (0) |
| CCCn1c(=O)c2[nH]c(-c3cnn(Cc4cccc(C(F)(F)F)c4)c3)nc2n(CC)c1=O | no (0) |
| OCc1ccc(-c2ccc(-c3ccc(CO)s3)o2)s1 | no (0) |
| O=C(O)c1ccc2c(c1)nc(Nc1cccc(Cl)c1)c1ccncc12 | yes (1) |
| Cc1cn(-c2cc(NC(=O)c3ccc(C)c(Nc4nccc(-c5cccnc5)n4)c3)cc(C(F)(F)F)c2)cn1 | no (0) |
| Clc1cccc(-c2nnnn2Cc2cccnc2)c1Cl | no (0) |
| O=C(Cc1ccc(-c2ccc(OCCN3CCOCC3)cc2)cn1)NCc1ccccc1 | yes (1) |
| O=C(Nc1ncc(-c2cc(C(F)F)nn2-c2c(Cl)cccc2Cl)s1)C1CC1 | yes (1) |
| O=C1CCC[C@@H]2[C@H]3CCC[N+]4([O-])CCC[C@@H](CN12)[C@@H]34 (some centres not stated) | no (0) |
| CC(C)c1cnn2c(NCc3ccccc3)cc(N[C@@H](CO)[C@H](O)CO)nc12 | yes (1) |
| COc1cccc(Nc2c(C(N)=O)cnc3c(C)cc(S(=O)(=O)c4cccc(C(=O)N(C)C)c4)cc23)c1 | no (0) |
| Cc1ccc(C(=O)Nc2cccc(C(F)(F)F)c2)cc1-c1ccc2nc(NCCN3CCOCC3)ncc2c1 | yes (1) |
| OCCCNc1cc(-c2ccnc(Nc3cccc(Cl)c3)n2)ccn1 | yes (1) |
| CC1(C)CC(=O)c2c(C(F)(F)F)nn(-c3ccc(C(N)=O)c(NC4CCC(OC(=O)CN)CC4)c3)c2C1 (configuration not stated) | yes (1) |
| CC(C)(O)CCc1ccc(OCc2cc(-c3cccc(OC(F)F)c3)c3ncccc3c2)cc1 | no (0) |
| COC(=O)C1=C(C)NC(C)=C(C(=O)OCCN2CCN(C(c3ccccc3)c3ccccc3)CC2)C1c1cccc([N+](=O)[O-])c1 (configuration not stated) | no (0) |
| CC(C)Nc1cc(C(F)(F)F)cc2nc(NC(=O)c3cccnc3)nn12 | no (0) |
| CNC(=O)c1cc(Oc2ccc(NC(=O)Nc3cc(C(C)(C)C)nn3-c3ccc4ncccc4c3)c(F)c2)ccn1 | yes (1) |
| CC1(O)CC(c2nc(-c3ccc4ccc(-c5ccccc5)nc4c3)c3c(N)nccn23)C1 (configuration not stated) | no (0) |
| Nc1nc(NCCNc2ncc(-n3ccnc3)c(-c3ccc(Cl)cc3Cl)n2)ccc1[N+](=O)[O-] | no (0) |
| O=C(c1ccc(Nc2nccc(-c3cc4ccccc4s3)n2)cc1)N1CCC(N2CCCC2)CC1 | yes (1) |
| CCn1nnc2c(N3CCOCC3)nc(-c3ccc(NC(=O)Nc4ccc(C(=O)N5CCN(C)CC5)cc4)cc3)nc21 | yes (1) |
| Cc1[nH]nc2ccc(-c3cncc(OC[C@@H](N)Cc4ccccc4)c3)cc12 | yes (1) |
| Cn1c(CNc2ccc(C(=N)N)cc2)nc2cc(C(=O)N(CCC(=O)O)c3ccccn3)ccc21 | no (0) |
| O=C(O)CCCc1c[nH]c2ccccc12 | no (0) |
| COc1cc2c(Oc3ccc(NC(=O)C4(C(=O)Nc5ccc(F)cc5)CC4)cc3F)ccnc2cc1OCCCN1CCOCC1 | yes (1) |
| COc1ccc(-c2cc3c(C)nc(N)nc3n(C3CCC(OCCO)CC3)c2=O)cn1 (configuration not stated) | yes (1) |
| CNC(=O)c1c(F)cccc1Nc1nc(Nc2cc3c(cc2OC)CCN3C(=O)CN(C)C)nc2[nH]ccc12 | no (0) |
| CN1CCC(CNc2ccc3ncc(-c4cccc(OC(F)(F)F)c4)n3n2)CC1 | no (0) |
| Cc1c(Cn2c(C)nc3c(C(=O)O)cc(N4CCOCC4)cc32)cccc1C(F)(F)F | no (0) |
| COc1cc(C(=O)NS(=O)(=O)c2ccccc2C)ccc1Cc1cn(C)c2ccc(NC(=O)OC3CCCC3)cc12 | no (0) |

---

assay: Quantitative High-Throughput drug screen in 47 multiple myeloma cell lines against the NCATS MIPE library collection: XG1_PLB cell viability assay (AID 1919866); note: nearly all actives have a fitted effect of over 35% in size
setup conditions: CellTiter-Glo ATP, 48 h; series mostly up to 45.8 µM
Records with an inconclusive call do not appear. The source made the active and inactive calls. Calls come from the whole dose curve; as a rule, active = well fitted cell-killing curve with a large enough effect; inconclusive = small, poorly fitted or top-dose-only effect, or effect the other way; inactive = no such curve, though single readings can be large or run the other way.
Possible outcomes: active, inactive

| compound | group |
| --- | --- |
| O=C1CCC[C@@H]2[C@H]3CCC[N+]4([O-])CCC[C@@H](CN12)[C@@H]34 (stereo not given in full) | inactive |
| Cn1c2ccccc2c2c3c(c4c5ccccc5n(CCC#N)c4c21)CNC3=O | active |
| Cc1cc(Nc2cc(CN3CCOCC3)c3nc(C)c(Cc4ccc(Cl)cc4F)n3n2)n[nH]1 | active |
| CCCNC(=O)Nc1ccc(Oc2ncnc3cc(OC)c(OC)cc23)cc1Cl | inactive |
| CC(C)c1ccccc1Cc1cc(C(=O)Nc2ccc(S(=O)(=O)c3ccccc3C(C)(C)C)cc2)c(O)c(O)c1O | active |
| COc1c(N2C[C@@H]3CCCN[C@H]3C2)c(F)cc2c(=O)c(C(=O)O)cn(C3CC3)c12 | inactive |
| COc1cc2c(cc1-c1c(C)noc1C)ncc1[nH]c(=O)n([C@H](C)c3ccccn3)c12 | active |
| Nc1ccccc1NC(=O)c1ccc(CNC(=O)OCc2cccnc2)cc1 | active |
| COc1cc(-c2nn(C3CCC(N4CCN(C(C)=O)CC4)CC3)c3ncnc(N)c23)ccc1NC(=O)c1cc2ccccc2n1C (stereo not given) | active |
| C1Cc2[nH]nc(-c3nn[nH]n3)c2C1 | inactive |

---

assay: Quantitative High-Throughput drug screen in 47 multiple myeloma cell lines against the NCATS MIPE library collection: Karpas25_ECACC cell viability assay (AID 1918968; note: nearly all actives have a fitted effect of over 35% in size)
setup conditions: Karpas25 myeloma viability, CellTiter-Glo ATP, 48 h; series mostly up to 45.8 µM
Records with an inconclusive call do not appear. The source made the active and inactive calls. The call rests on the fitted dose curve; in most records, active means well fitted cell-killing curve with a large enough effect; inconclusive means small, poorly fitted or top-dose-only effect, or effect the other way; inactive means no such curve, though single readings can be large or run the other way.
Possible outcomes: active, inactive

| compound | group |
| --- | --- |
| CCN1CCN(Cc2ccc(-c3cc4c(N[C@H](C)c5ccccc5)ncnc4[nH]3)cc2)CC1 | active |
| Cc1cnc(-c2cnc(NCCNc3ccc(C#N)cn3)nc2-c2ccc(Cl)cc2Cl)[nH]1 | active |
| CC1(C)CC(=O)c2c(C(F)(F)F)nn(-c3ccc(C(N)=O)c(NC4CCC(OC(=O)CN)CC4)c3)c2C1 (stereo not drawn) | active |
| CN(C)Cc1c(C(=O)NCCOc2ccc(C(=O)NO)cc2)oc2ccccc12 | active |
| Cc1nc(N)ncc1-c1nc(N2CCOCC2)c2sc(C(C)(C)O)cc2n1 | active |
| COc1ccc(F)c(F)c1C(=O)c1cnc(NC2CCN(S(C)(=O)=O)CC2)nc1N | active |
| Nc1ncnc2c1c(-c1cccc(OCc3ccccc3)c1)cn2C1CC(CN2CCCC2)C1 (stereo not drawn) | active |
| CC[C@@H]1C(=O)N(C)c2cnc(Nc3ccc(C(=O)NC4CCN(C)CC4)cc3OC)nc2N1C1CCCC1 | active |
| CNc1nccc(-c2cccnc2Oc2cc(C(=O)Nc3cccc(C(F)(F)F)c3)ccc2C)n1 | active |
| CC1(C)CCC(c2ccc(Cl)cc2)=C(CN2CCN(c3ccc(C(=O)NS(=O)(=O)c4ccc(N[C@H](CCN5CCOCC5)CSc5ccccc5)c(S(=O)(=O)C(F)(F)F)c4)cc3)CC2)C1 | active |
| CNC(=O)c1nn(C)c2c1C(C)(C)Cc1cnc(Nc3ccc(N4CCN(C)CC4)cc3)nc1-2 | active |
| CN[C@H]1CCc2cc(OC)c(OC)c(OC)c2-c2ccc(OC)c(=O)cc21 | active |
| Cc1cc(Nc2cc(NC(=O)c3c(Cl)cccc3Cl)ccn2)nc(N)n1 | active |
| Nc1nc(NCCNc2ncc(-n3ccnc3)c(-c3ccc(Cl)cc3Cl)n2)ccc1[N+](=O)[O-] | active |
| CC(C)(C)OC(=O)Nc1ccc(-c2cc(C(=O)NCCCCCCC(=O)NO)no2)cc1 | active |
| COC(=O)C1=C(C)NC(C)=C(C(=O)OCCN2CCN(C(c3ccccc3)c3ccccc3)CC2)C1c1cccc([N+](=O)[O-])c1 (stereo not drawn) | inactive |
| O=C(Nc1cn[nH]c1-c1nc2ccc(CN3CCOCC3)cc2[nH]1)NC1CC1 | active |
| Cc1ccc2nc(NC(=O)CSc3nc4c(c(=O)n3-c3ccccc3)SCC4)sc2c1 | active |
